Every entry's value here was drawn from the supplement of paper PMC11061612.

For each entry below, report its combination Emax value.
- System: NCI-H1355 (Lung Adenocarcinoma)
- experimental.details: combination Emax (second highest fraction inhibited in the dose matrix, 72 h); higher = more inhibition; extreme values may be limits of the assay

[Q] May I ask what combination Emax has been recorded for Cc1c2c(nn1C)CSCc1cc(n(C)n1)CSc1cc(c3ccccc3c1)OCCCc1c(C(=O)O)n(C)c3c-2c(Cl)ccc13 [AZD5991] + CCN(CCO)CCCOc1ccc2c(Nc3cc(CC(=O)Nc4cccc(F)c4)[nH]n3)ncnc2c1 [AZD2811] (first compound max 1 µM, 7x7, partner max 1 µM) ?
[A] 0.334

[Q] May I ask what combination Emax has been recorded for CCc1c2c(nc3ccc(O)cc13)-c1cc3c(c(=O)n1C2)COC(=O)[C@]3(O)CC [SN-38] + O=C(c1cc(Cc2n[nH]c(=O)c3ccccc23)ccc1F)N1CCN(C(=O)C2CC2)CC1 [Olaparib] (first compound max 0.3 µM, 7x7, partner max 10 µM) ?
[A] 0.366

[Q] May I ask what combination Emax has been recorded for COc1cccc(OCCCN)c1-c1cc(Nc2cnc(C#N)cn2)n[nH]1 [Prexasertib] + O=C(c1cc(Cc2n[nH]c(=O)c3ccccc23)ccc1F)N1CCN(C(=O)C2CC2)CC1 [Olaparib] (first compound max 1 µM, 7x7, partner max 10 µM) ?
[A] 0.746

[Q] May I ask what combination Emax has been recorded for NC1(C(=O)N[C@@H](CCO)c2ccc(Cl)cc2)CCN(c2ncnc3[nH]ccc23)CC1 [Capivasertib] + CC(=O)c1c(C)c2cnc(Nc3ccc(N4CCNCC4)cn3)nc2n(C2CCCC2)c1=O [Palbociclib] (first compound max 10 µM, 7x7, partner max 10 µM) ?
[A] 0.472
